system: JAK2(JH1domain-catalytic); settings: concentration: 1 μM, replicates: in singlicate; n = 1;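 further: KINOMEscan kinase panel screen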
Give %Inh for every item shown.
Please append the unit to your numeric answer.

molecule: Cc1ccc(S(=O)(=O)Nc2ccc(Nc3nccc(Nc4cccc5[nH]ncc45)n3)cc2)cc1
%Inh: 68%
--
molecule: Cl.Cl.NCC(NC(=O)c1cc(-c2ccccc2)c(-c2ccnc3[nH]ccc23)s1)c1ccccc1 (stereo not shown)
%Inh: 41%
--
molecule: CN1CCN(CCCNc2nccc(-c3c(-c4ccc(F)cc4)nn4cc(C(F)(F)F)ccc34)n2)CC1
%Inh: 32%

Read the next record carefully.
Query Cl.NC(=O)c1cccc(Nc2nccc(Nc3ccc(Oc4c(Cl)cccc4Cl)c(Cl)c3)n2)c1 yields %Inh of 72%
